Cited source: ChEMBL document CHEMBL4368913

- test.protocol: Cytotoxicity against HUVEC assessed as inhibition of cell growth
- Assay type: cell-based
- measurement.setup: human, HUVEC cells

- test.smiles: "COc1cc(Nc2ncnc3cc(-c4ccc(C)cc4)sc23)cc(OC)c1OC"
  result.units: "nM"
  GI50: 56

====

pIC50: −log10 of the molar value.
Entries with their measured pIC50, system Epidermal growth factor receptor (Homo sapiens, UniProt P00533):

- test.smiles: "COc1cc(Nc2ncnc3cc(-c4ccc(I)cc4)sc23)cc(OC)c1OC"
  pIC50: 8.00
- test.smiles: "COc1cc(Nc2ncnc3cc(-c4ccc(Br)cc4)sc23)cc(OC)c1OC"
  pIC50: 6.49
- test.smiles: "COc1cc(Nc2ncnc3cc(-c4cccs4)sc23)cc(OC)c1OC"
  pIC50: 8.60

====

- target.of.assay: Tubulin (Bos taurus) (UniProt Q6B856+Q862L2+Q862F3)
- test.protocol: Inhibition of [3H]-colchicine binding to bovine brain tubulin at 1 to 5 uM after 20 mins relative to control

- test.smiles: "COc1cc(Nc2ncnc3cc(-c4ccc(Br)cc4)sc23)cc(OC)c1OC"
  result.units: "%"
  inhibition: 35
- test.smiles: "COc1cc(Nc2ncnc3cc(-c4ccc(Cl)cc4)sc23)cc(OC)c1OC"
  result.units: "%"
  inhibition: 36
- test.smiles: "COc1cc(Nc2ncnc3cc(-c4ccc(C)cc4)sc23)cc(OC)c1OC"
  result.units: "%"
  inhibition: 76
- test.smiles: "COc1cc(Nc2ncnc3cc(-c4ccc(I)cc4)sc23)cc(OC)c1OC"
  result.units: "%"
  inhibition: 35
- test.smiles: "COc1ccc(-c2cc3ncnc(Nc4cc(OC)c(OC)c(OC)c4)c3s2)cc1"
  result.units: "%"
  inhibition: 31

====

- System: B16
- test.protocol: Antiproliferative activity against mouse B16 cells after 72 hrs by MTT assay
- Assay type: functional, cell-based
- measurement.setup: B16, 72 h
pIC50: −log10 of the molar value.

- test.smiles: "COc1cc(Nc2ncnc3cc(-c4ccc(C)cc4)sc23)cc(OC)c1OC"
  pIC50: 7.63

====

Parameter: pIC50. Scope: all listed entries.
- target.of.assay: Vascular endothelial growth factor receptor 2 (Homo sapiens)
- Sequence (P35968 whole entry): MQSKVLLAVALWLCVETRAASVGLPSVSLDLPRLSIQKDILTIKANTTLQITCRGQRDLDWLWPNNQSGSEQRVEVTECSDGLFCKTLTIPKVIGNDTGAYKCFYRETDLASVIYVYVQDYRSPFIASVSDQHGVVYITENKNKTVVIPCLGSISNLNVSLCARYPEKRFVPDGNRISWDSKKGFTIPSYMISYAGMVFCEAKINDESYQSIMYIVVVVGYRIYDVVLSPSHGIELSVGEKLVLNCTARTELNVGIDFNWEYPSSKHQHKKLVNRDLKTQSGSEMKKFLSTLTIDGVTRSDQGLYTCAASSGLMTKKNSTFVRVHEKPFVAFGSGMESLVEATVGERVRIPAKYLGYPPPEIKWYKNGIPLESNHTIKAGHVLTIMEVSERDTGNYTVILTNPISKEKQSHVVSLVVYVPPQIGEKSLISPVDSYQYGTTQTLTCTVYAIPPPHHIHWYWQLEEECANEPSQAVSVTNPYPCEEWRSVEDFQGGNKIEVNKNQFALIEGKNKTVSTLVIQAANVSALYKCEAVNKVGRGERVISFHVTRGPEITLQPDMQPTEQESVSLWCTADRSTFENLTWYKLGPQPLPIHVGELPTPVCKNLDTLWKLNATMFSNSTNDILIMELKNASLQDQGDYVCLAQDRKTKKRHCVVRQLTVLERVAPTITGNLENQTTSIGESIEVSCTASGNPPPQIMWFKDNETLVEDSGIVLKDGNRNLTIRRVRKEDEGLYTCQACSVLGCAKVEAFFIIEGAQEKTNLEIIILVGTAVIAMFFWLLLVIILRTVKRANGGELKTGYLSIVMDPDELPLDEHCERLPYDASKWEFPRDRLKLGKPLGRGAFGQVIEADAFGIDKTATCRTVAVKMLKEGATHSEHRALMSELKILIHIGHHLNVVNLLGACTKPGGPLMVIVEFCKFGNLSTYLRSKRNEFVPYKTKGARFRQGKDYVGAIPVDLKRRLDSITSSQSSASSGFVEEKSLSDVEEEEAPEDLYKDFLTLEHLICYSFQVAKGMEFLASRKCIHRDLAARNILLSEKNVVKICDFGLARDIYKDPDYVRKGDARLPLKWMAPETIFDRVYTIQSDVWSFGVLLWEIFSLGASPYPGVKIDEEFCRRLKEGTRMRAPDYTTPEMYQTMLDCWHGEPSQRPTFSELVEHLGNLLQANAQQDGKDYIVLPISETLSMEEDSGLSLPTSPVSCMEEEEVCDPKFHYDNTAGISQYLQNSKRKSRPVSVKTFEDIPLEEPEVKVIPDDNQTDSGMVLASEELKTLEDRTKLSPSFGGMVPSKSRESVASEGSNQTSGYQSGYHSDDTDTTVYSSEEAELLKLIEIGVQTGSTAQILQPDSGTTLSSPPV
- test.protocol: Inhibition of VEGFR2 (unknown origin)
pIC50: −log10 of the molar value.
property.name: pIC50

- test.smiles: "Cc1cc2cc(Nc3ncnc4cc(-c5ccccc5)sc34)ccc2[nH]1"
  reported.value: 6.85
- test.smiles: "c1ccc(-c2cc3ncnc(Nc4ccc5[nH]ccc5c4)c3s2)cc1"
  reported.value: 7.10

====

# key: entry, value: IC50
- target.of.assay: Tubulin (Bos taurus, UniProt Q6B856+Q862L2+Q862F3)
- test.protocol: Inhibition of bovine brain tubulin polymerization after 20 mins

- test.smiles: "COc1cc(Nc2ncnc3cc(-c4ccccc4)sc23)cc(OC)c1OC"
  IC50 (µM): 10
- test.smiles: "COc1cc(Nc2ncnc3cc(-c4ccc(Cl)cc4)sc23)cc(OC)c1OC"
  IC50 (µM): 3.3
- test.smiles: "COc1ccc(-c2cc3ncnc(Nc4cc(OC)c(OC)c(OC)c4)c3s2)cc1"
  IC50 (µM): 2.8
- test.smiles: "COc1cc(Nc2ncnc3cc(-c4ccc(I)cc4)sc23)cc(OC)c1OC"
  IC50 (µM): 2.5
- test.smiles: "COc1cc(Nc2ncnc3cc(-c4cccs4)sc23)cc(OC)c1OC"
  IC50 (µM): 18
- test.smiles: "COc1cc(Nc2ncnc3cc(-c4ccc(C)cc4)sc23)cc(OC)c1OC"
  IC50 (µM): 0.71
- test.smiles: "COc1cc(Nc2ncnc3cc(-c4ccc(Br)cc4)sc23)cc(OC)c1OC"
  IC50 (µM): 2.5

====

- Tested on: HeLa
- test.protocol: Antiproliferative activity against human HeLa cells after 72 hrs by MTT assay
- Type: functional, cell-based
pIC50: −log10 of the molar value.
Form field: pIC50 (one value per entry).
property.name: pIC50

- test.smiles: "COc1cc(Nc2ncnc3cc(-c4ccc([N+](=O)[O-])cc4)sc23)cc(OC)c1OC"
  reported.value: 5.31
- test.smiles: "COc1cc(Nc2ncnc3cc(-c4ccccc4)sc23)cc(OC)c1OC"
  reported.value: 6.77
- test.smiles: "COc1cc(Nc2ncnc3cc(-c4cccs4)sc23)cc(OC)c1OC"
  reported.value: 5.77
- test.smiles: "COc1cccc(-c2cc3ncnc(Nc4cc(OC)c(OC)c(OC)c4)c3s2)c1"
  reported.value: 5.49
- test.smiles: "COc1cc(Nc2ncnc3cc(-c4ccc(F)cc4)sc23)cc(OC)c1OC"
  reported.value: 6.35
- test.smiles: "COc1cc(Nc2ncnc3cc(-c4ccc(I)cc4)sc23)cc(OC)c1OC"
  reported.value: 6.55
- test.smiles: "COc1cc(Nc2ncnc3cc(-c4ccc(C)cc4)sc23)cc(OC)c1OC"
  reported.value: 9.00
- test.smiles: "COc1cc(Nc2ncnc3cc(-c4ccc(Br)cc4)sc23)cc(OC)c1OC"
  reported.value: 6.66
- test.smiles: "COc1cc(Nc2ncnc3cc(-c4ccc(Cl)cc4)sc23)cc(OC)c1OC"
  reported.value: 7.05
- test.smiles: "COc1ccc(-c2cc3ncnc(Nc4cc(OC)c(OC)c(OC)c4)c3s2)cc1"
  reported.value: 6.77
